Cited source for all entries: ChEMBL document CHEMBL5726444

# assay-target: cAMP and cAMP-inhibited cGMP 3',5'-cyclic phosphodiesterase 10A (Homo sapiens, UniProt Q9Y233)
# Sequence (Q9Y233 whole entry): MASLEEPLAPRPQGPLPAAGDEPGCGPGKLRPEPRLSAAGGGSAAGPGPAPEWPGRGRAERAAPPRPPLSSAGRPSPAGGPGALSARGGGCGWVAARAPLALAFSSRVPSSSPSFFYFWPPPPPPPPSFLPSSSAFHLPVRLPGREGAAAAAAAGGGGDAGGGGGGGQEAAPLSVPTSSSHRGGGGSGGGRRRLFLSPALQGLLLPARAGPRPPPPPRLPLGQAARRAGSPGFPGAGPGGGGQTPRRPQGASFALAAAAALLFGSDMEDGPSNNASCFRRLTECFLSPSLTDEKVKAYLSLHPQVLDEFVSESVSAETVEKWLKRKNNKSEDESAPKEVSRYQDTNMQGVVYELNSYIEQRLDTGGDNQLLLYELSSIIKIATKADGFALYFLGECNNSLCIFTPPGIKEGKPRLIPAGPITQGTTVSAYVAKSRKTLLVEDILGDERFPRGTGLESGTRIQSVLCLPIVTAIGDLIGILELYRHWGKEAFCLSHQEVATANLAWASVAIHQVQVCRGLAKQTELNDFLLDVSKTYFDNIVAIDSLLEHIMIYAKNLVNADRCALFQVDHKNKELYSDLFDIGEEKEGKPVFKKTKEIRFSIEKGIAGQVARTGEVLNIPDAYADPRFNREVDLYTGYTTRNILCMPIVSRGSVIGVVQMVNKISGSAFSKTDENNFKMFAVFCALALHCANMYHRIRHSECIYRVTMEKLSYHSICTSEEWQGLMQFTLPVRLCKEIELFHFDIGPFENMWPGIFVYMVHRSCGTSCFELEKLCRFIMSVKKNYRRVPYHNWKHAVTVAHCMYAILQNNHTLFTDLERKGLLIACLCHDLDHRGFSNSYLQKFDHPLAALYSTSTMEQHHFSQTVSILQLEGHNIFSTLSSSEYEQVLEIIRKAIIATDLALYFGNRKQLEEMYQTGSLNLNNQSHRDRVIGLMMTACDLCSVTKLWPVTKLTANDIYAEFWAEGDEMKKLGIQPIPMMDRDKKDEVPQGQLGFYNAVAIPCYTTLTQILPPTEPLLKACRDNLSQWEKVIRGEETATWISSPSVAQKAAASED
# assay-details: Phosphodiersterase Evaluation Assay: IMAP TR-FRET Phosphodiersterase Evaluation Assay Kit (Molecular Device) was used for the measurement. Ten μL of a diluted test compound having each concentration and 5 μL of the enzyme PDE10 (BPA Bioscience) that had been diluted to 2 ng/mL with 1×IMAP Reaction Buffer (prepared with 5×included with the kit, 10 mM Tris-HCl, pH=7.2, 10 mM MgCl2, 0.05% NaN3, and 0.1% BSA) containing 0.1% BSA were added to a 384-well plate (Corning). The obtained mixture was then pre-incubated at room temperature for 5 minutes. Thereafter, 5 μL of cAMP substrate solution which was included with the kit and diluted to 400 nM with 1×IMAP Reaction Buffer containing 0.1% BSA, was added to the reaction solution, and the obtained mixture was reacted at room temperature for 60 minutes. Thereafter, 60 μL of an IMAP TR-FRET Binding solution included with the kit was further added to the reaction solution, and the obtained mixture was then left for 3 hours or more. Subsequently, using ARVO SX (PerkinElmer), the fluorescent intensity of Terbium (Emission=490 nm) and TR-FRET (Emission=520 nm) in the reaction solution were measured at an excitation wavelength of 340 nm, so as to calculate the amount of the generated 5′-AMP. The count of a well to which a solvent had been added instead of the test compound was set at 0%, and the count of a well to which the enzyme PDE10 had not been added was set at 100%. Thus, the inhibitory activity of each test compound was calculated.
recorded-metric: IC50

In: Please give the measured IC50 for this molecule: `Cc1cccc(-c2cnn(C)c2C(=O)Nc2cc3nc(N4CCC[C@@H]4C(F)(F)F)nn3cc2F)n1`
Out: < 5 nM
